experimental.system: Left-right determination factor 2 (Homo sapiens)
assay.comment: LEFTY2 binders on small-molecule microarrays, primary screen, biochemical, small-molecule microarray, 635 nm fluorescence scan (AID 1110)
settings: LEFTY2 binding, higher = more signal
Please use the following composite z-score ranges when assigning a class: lower segment = under -0.1, middle segment = from -0.1 up to 0.2, upper segment = 0.2 and over

| compound | classification |
| --- | --- |
| CN1C(=O)C2CC=C(C3=CCO[C@@H]3[C@H]3CCCN3S(=O)(=O)c3ccccc3[N+](=O)[O-])CC2C1=O (some centres undefined) | lower segment |
| CC[C@H]1C2=C3C(CC[C@H]4C(OCc5ccc(F)cc5C(F)(F)F)OC[C@](C)([C@@H]34)N(C(=O)OC(C)(C)C)C2)C(COC(C)=O)C1COC(C)=O (some centres undefined) | lower segment |
| COC(=O)[C@@]1(Cc2ccc(F)cc2)[C@H]2c3cc(C(=O)N(C)C)n(CCF)c3C[C@H]2CN1C(=O)c1ccccc1 | middle segment |
| COc1cc(CO)cc(I)c1O[C@H]1C=C(C(=O)NCCO)C[C@@H](N(CCN2CCOCC2)C(=O)C2CCCO2)[C@@H]1O (some centres undefined) | upper segment |
| O=C(NCC(F)(F)F)[C@@H]1c2ccccc2C(=O)N(Cc2cc(C(F)(F)F)cc(C(F)(F)F)c2)[C@H]1c1ccc(CO)cc1 | lower segment |
| C=CCNC(=O)[C@@H]1[C@H]2C(=O)O[C@H](c3ccccc3)[C@H](c3ccccc3)N2[C@H](c2ccc(O)cc2)[C@@]12C(=O)N(C(=O)OCCOC)c1ccc(C#CCC(C(=O)OC)C(=O)OC)cc12 | upper segment |
| CCCC[C@@H](O)C1=C(C)Cn2c(=O)n(-c3ccccc3)c(=O)n2[C@H]1CO | middle segment |
| CC(C)c1ccc(NN2C(C(O)c3ccccc3)C=CC3C(=O)N(c4ccccc4)C(=O)C32)cc1 (centres undefined) | lower segment |
| CC(C)N1C(=O)[C@@]2(Cc3ccccc31)c1ccccc1C(=O)N(Cc1ccccc1)[C@H]2c1ccc(CO)cc1 | middle segment |
| O=C1C2C=CC(C(O)C3CC=CCC3)N(Nc3ccc([N+](=O)[O-])cc3)C2C(=O)N1c1ccccc1 (centres undefined) | upper segment |
| COc1c(C)cc(-c2cc3c(c(CCc4ccccc4)n2)[Si](C(C)C)(C(C)C)O[C@H]3c2ccccc2)cc1C | lower segment |
| CC[C@@H]1C=C(C(=O)O)[C@H](c2cccc(Cl)c2)N1S(=O)(=O)c1ccc(C)cc1 | lower segment |
| COC(=O)[C@@]1(Cc2ccc(F)cc2)[C@H]2c3cc(C(=O)N4CCCC4)n(CCc4c[nH]c5cc(F)ccc45)c3C[C@H]2CN1C(=O)c1ccccc1 | middle segment |
| CN1C(=O)C2C(C1=O)C1C=C(CCCO)C2C(C2CC2)N1C (centres undefined) | lower segment |
| CCOC(=O)C=C1C[C@@H](c2cccc([N+](=O)[O-])c2)O[C@@H](c2cccc([N+](=O)[O-])c2)O1 | upper segment |
| CC(C)(C)OC(=O)CC[C@]1(C(N)=O)N=C(c2ccc(OCCCO)cc2)O[C@H]1c1ccccc1N=[N+]=[N-] | lower segment |
| CN1C(=O)C2C=CC(C(O)COCc3ccccc3)N(Nc3ccc([N+](=O)[O-])cc3[N+](=O)[O-])C2C1=O (centres undefined) | lower segment |
| CC(C)(C)OC(=O)CC[C@@]1(C(N)=O)N=C(c2ccc(OCCCO)cc2)O[C@@H]1c1ccccc1CN=[N+]=[N-] | middle segment |
| [N-]=[N+]=NCc1ccccc1[C@H]1OC(c2ccc(OCCCO)cc2)=N[C@@]1(CCS(=O)(=O)c1ccccc1)C(=O)NCCN1CCOCC1 | middle segment |
| COC(=O)C1=CC(CCCO)=CC(c2ccc(CN3CCCC3)cc2)N(C)C=C1C(=O)OC (centres undefined) | middle segment |
| COC(=O)c1ccc(OC)c(/C=C\CC(OC(=O)c2ccncc2)c2ccccc2)c1 (centres undefined) | upper segment |
| COc1cc2c(cc1OC)CN(C(=O)[C@@H]1[C@H]3C(=O)O[C@H](c4ccccc4)[C@H](c4ccccc4)N3[C@H](c3ccc(O)cc3)[C@@]13C(=O)Nc1ccc(C#CC4=CCCCC4)cc13)CC2 | upper segment |
| CC(C)Cc1ccc(CN2CC[C@@H](NC(=O)c3ccccc3)C2)cc1 | middle segment |
| CN(C)CCCC[C@@H]1NC(=O)[C@H]2C[C@@H](C(=O)NCCCCCCNC(=O)CS)[C@@H](c3cccc(OCCO)c3)N2C1=O | lower segment |
| C=CCNC(=O)[C@@H]1[C@H]2C(=O)O[C@H](c3ccccc3)[C@H](c3ccccc3)N2[C@H](c2ccc(OCCO)cc2)[C@@]12C(=O)N(C(=O)OCCOC)c1ccccc12 | upper segment |
| O=C(N1CCOCC1)[C@]1(CCS(=O)(=O)c2ccccc2)N=C(c2ccc(OCCCO)cc2)O[C@@H]1c1ccccc1 | lower segment |
| COC(=O)C(CC#Cc1ccc2c(c1)[C@]1(C(=O)N2)[C@H](c2ccccc2OCCO)N2[C@H](c3ccccc3)[C@H](c3ccccc3)OC(=O)[C@H]2[C@@H]1C(=O)N1CCN(c2ncccn2)CC1)C(=O)OC | upper segment |
| COc1cc(Cc2cc3c(c(-c4ccccc4)n2)[Si](C(C)C)(C(C)C)OC3)cc(OC)c1OC | upper segment |
| CCCCC(=C=CC[C@H](O)c1cccc(OCCO)c1)C[C@H](O)c1cc(Cl)cc(Cl)c1O | middle segment |

###

assay.comment: yeast growth modulation, basal conditions, primary screen, YJM789 clinical isolate, OD600, 24 h (AID 1089);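 note: growth of clinical yeast isolate S. cerevisiae YJM 789 seeded 1000 cells per well; test concentration not given here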
settings: S. cerevisiae YJM789 growth, higher = more signal, called active from +8 up or from −8 down
Calls of active or inactive are those of the source.

| chem.smiles | z-score |
| --- | --- |
| COCCOC(=O)N1C(=O)[C@@]2(c3cc(C#CCC(C(=O)OC)C(=O)OC)ccc31)[C@H](c1ccc(O)cc1)N1[C@H](c3ccccc3)[C@H](c3ccccc3)OC(=O)[C@H]1[C@@H]2C(=O)N1CCc2cc(OC)c(OC)cc2C1 | 0.344 (inactive) |
| COc1ccc([Si](C)(C)[C@H]2[C@H](CC(=O)N3CCC[C@H]3CO)O[C@@]3(C(=O)N(C)c4c(Br)cc(C)cc43)[C@@H]2C)cc1 | -0.749 (inactive) |
| COC(=O)[C@@]1(Cc2ccc(F)cc2)[C@H]2c3cc(C(=O)N4CCCC4)n(C[C@H](O)CO)c3C[C@H]2CN1C(=O)c1ccccc1 | -0.161 (inactive) |
| CCCCCCc1nc(-c2ccc(OC)nc2)c(C)c2c1[Si](C(C)C)(C(C)C)OC2 | -0.0796 (inactive) |
| COC(=O)[C@]1(Cc2ccccc2N=[N+]=[N-])N=C(c2ccc(OCCCO)cc2)O[C@@H]1c1ccccc1CN=[N+]=[N-] | -0.141 (inactive) |
| COc1cccc(C)c1NC(=O)O[C@H]1[C@H](OC(=O)Nc2ccc3c(c2)OCO3)[C@H](OC(=O)Nc2ccc3c(c2)OCO3)[C@@H](OC)O[C@@H]1CO | 1.5 (inactive) |

###

assay.comment: E. coli growth modulation, two-sided OD650, primary screen, E. coli filamentation project, strain DRC41, 24 h (AID 1093);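 note: MC1000 strain lacking acrAB efflux and sulA so SOS filamentation is blocked; test concentration not given here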
settings: OD650, 24 h, higher = more signal, called active from +8 up or from −8 down
Active and inactive are the calls of the source.
Recorded z-score values for a group of molecules are listed next.

| molecule | z-score |
| --- | --- |
| COCCCNC(=O)[C@@]1(Cc2ccccc2I)c2ccccc2C(=O)N(C2CCCCC2)[C@H]1c1ccc(CO)cc1 | 0.0355 (inactive) |
| C=CCNC(=O)[C@H]1[C@@H]2C(=O)O[C@@H](c3ccccc3)[C@@H](c3ccccc3)N2[C@@H](c2ccc(O)cc2)[C@]12C(=O)N(C(=O)OCCOC)c1ccc(C#Cc3ccc(OC)cc3)cc12 | -0.866 (inactive) |
| COCCOC(=O)N1C(=O)[C@@]2(c3cc(C#CCNC(N)=O)ccc31)[C@H](c1ccccc1OCCO)N1[C@H](c3ccccc3)[C@H](c3ccccc3)OC(=O)[C@H]1[C@@H]2C(=O)N1CCCCCCC1 | -0.515 (inactive) |
| C[C@]12C(=O)N(CCO)[C@@H]3C(=O)N(c4ccc(Cl)cc4)CC=CC31O[C@@H]1/C=C\CCCOC(=O)C12 (some centres not stated) | 0.125 (inactive) |
| COC(=O)[C@H](Cc1ccccc1)N1CC(C)(OC)O[C@@H](Cc2ccccc2)[C@H]1/C=C/C1CC1 (some centres not stated) | -0.0718 (inactive) |
| C=CCC(OC(C)=O)[C@@H]1[C@@H](N(Cc2ccc(-c3ccccc3)cc2)C(=O)Cc2ccc(OC)cc2)c2cc(OCCCO)ccc2N1C(=O)c1ccc2ccccc2c1 (some centres not stated) | -0.584 (inactive) |
| O=C1O[C@H](c2ccccc2)[C@H](c2ccccc2)N2[C@H]1[C@@H](C(=O)O)[C@]1(C(=O)Nc3ccccc31)[C@H]2c1ccc(OCCO)cc1 | 1.36 (inactive) |
| C=CCOC(=O)[C@@H]1[C@H]2C(=O)O[C@H](c3ccccc3)[C@H](c3ccccc3)N2[C@H](c2ccc(OCCOC(=O)[C@H]3C[C@H]4C(=O)N[C@@H](CCCCN(C)C)C(=O)N4[C@H]3c3cccc(OCCO)c3)cc2)[C@@]12C(=O)Nc1ccccc12 | -0.0426 (inactive) |
| CC(C)c1ccc(NN2C(C(O)C3CCCCC3)C=CC3C(=O)N(c4ccccc4)C(=O)C32)cc1 (configuration not stated) | -1.23 (inactive) |
| COc1ccc([Si](C)(C)[C@@H]2[C@@H](CC(=O)N3Cc4ccccc4C[C@H]3CO)O[C@]3(C(=O)N(Cc4ccc(I)cc4)c4ccccc43)[C@H]2C)cc1 | 2.19 (inactive) |
| O=C(c1ccccc1)N1Cc2ccccc2C[C@@]2(N=C(c3ccc(OCCCO)cc3)O[C@H]2c2ccccc2)C1=O | -0.231 (inactive) |
| COc1ccc([Si](C)(C)[C@H]2[C@H](CC(=O)N3CCC[C@H]3CO)O[C@@]3(C(=O)N(Cc4cccc(N5CCCCC5=O)c4)c4ccccc43)[C@@H]2C)cc1 | 0.561 (inactive) |
